# Test system: Plasmodium berghei
# assay text: Luciferase/luciferin-expressing antifolate-resistant parasites were used to infect a culture of HepG2 cells that were pre-incubated with compounds. Infected hepatocytes emit light due to the luciferase reaction. Assay results are presented as the percent inhibition of light emission compared to control. […]
# Assay type: functional
# run conditions: sporozoite, read-out: LUCIFERASE INFECTION ASSAY - IC50
Kindly supply the reported IC50 values for the records listed here.

Some compounds with recorded IC50:
INSERT INTO assay_data (smiles_record, result) VALUES
  ('CCOC(=O)c1sc2nc(C)nc(N3CC=C(c4c[nH]c5ncccc45)CC3)c2c1C', '> 10 µM'),
  ('CS(=O)(=O)c1sc(NC(=O)Nc2ccc(Cl)cc2)c2c1C=CCC2', '> 8.62 µM');

Would you kindly look at the next entry?
What the record says about `O=C(Nc1ccc(C(OC(=O)c2ccccc2)(C(F)(F)F)C(F)(F)F)cc1)c1ccccc1` : IC50 is > 10 µM

====

Consider the following compounds; for each one, report its IC90.
# Test system: Plasmodium berghei
# assay text: Luciferase/luciferin-expressing antifolate-resistant parasites were used to infect a culture of HepG2 cells that were pre-incubated with compounds. Infected hepatocytes emit light due to the luciferase reaction. Assay results are presented as the percent inhibition of light emission compared to control. […]
# Type: functional
# run conditions: sporozoite, read-out: LUCIFERASE INFECTION ASSAY - IC90

Worked cases, answers included:
INSERT INTO measurements (compound, target_or_system, result) VALUES
  ('COc1cccc(Nc2nc(C(N)Cc3ccc(F)cc3)cs2)n1 (stereo not drawn)', 'Plasmodium berghei', '> 9.58 µM'),
  ('CC(C)(C)NC(=S)N/N=C/c1c(O)ccc2ccccc12', 'Plasmodium berghei', '6.74 µM'),
  ('COc1cc(/C=N/Nc2ccc(C(F)(F)F)cn2)ccc1OS(=O)(=O)c1ccc(C)c([N+](=O)[O-])c1', 'Plasmodium berghei', '> 10 µM');

Give IC90 for each of the items listed below.
1. Cc1cc(NC(=O)C(c2ccc(Cl)cc2)C(C)C)ccc1Br (stereo not drawn)
2. COC(=O)c1c(-c2c(Cl)cccc2Cl)noc1CC=Nc1ccc(C(=O)O)cc1
3. OCc1ccc(-c2cnc3cnc(-c4ccc(CNc5ccccc5)cc4)cn23)cc1
4. Cc1c(C)n(Cc2ccccc2)c2ncn3nc(-c4cccnc4)nc3c12
5. Cc1cc(CSc2nnc(CN3CCCCC3)n2-c2ccc(F)cc2)on1
6. C=CCNc1nc(-c2ccccc2)c(C(=O)OCC)cc1C#N

Marked response:
["> 10 µM", "> 7.62 µM", "> 8.12 µM", "> 9.31 µM", "> 10 µM", "> 10.7 µM"]

Take each entry in turn and give its IC90.
1. Nc1ccc(-c2cnn3c(N4CCOCC4)ccnc23)cc1
2. CCOc1cc(/C=C/C(=O)c2ccc3c(c2)OCCO3)cc(Br)c1OCC(=O)N(C)C

Marked response:
8.75 µM
9.9 µM

Can you give me IC90 for all of these, one by one?
1. COc1ccc(C)cc1N1CC(C(=O)Nc2nc3ccccc3[nH]2)CC1=O (stereo not drawn)
2. CS(=O)(=O)c1ccc(-c2cc(C3(CNc4cccc(Cl)c4)CC3)ccn2)cc1
3. Cc1nn2c(=O)cc(C(C)C)[nH]c2c1-c1ccc(F)cc1
4. CC(NC(=O)COC(=O)c1cc(O)c2ccccc2c1O)C1CC2CCC1C2 (stereo not drawn)
5. Cc1oc(-c2ccc(Cl)cc2)cc1C(=O)Nc1cc(-c2cc(C(C)(C)C)oc2C)nn1-c1cc(C(F)(F)F)cc(C(F)(F)F)c1
6. CC1(C)C2CCC1(C)C(NC(=O)COc1ccc(Br)cc1Cl)C2 (stereo not drawn)
7. CCOC(=O)c1nn(CCc2ccccc2)c2c1CN(C(=O)c1cc(C)n[nH]1)CC2

Marked response:
1. 4.27 µM
2. > 10 µM
3. > 11.6 µM
4. > 10 µM
5. > 5.08 µM
6. 8.17 µM
7. > 8.1 µM

====

Give measured IC90 for each item. Keep answers brief.
# Tested on: Plasmodium berghei
# assay text: Luciferase/luciferin-expressing antifolate-resistant parasites were used to infect a culture of HepG2 cells that were pre-incubated with compounds. Infected hepatocytes emit light due to the luciferase reaction. Assay results are presented as the percent inhibition of light emission compared to control. […]
# Format: functional
# run conditions: sporozoite, read-out: LUCIFERASE INFECTION ASSAY - IC90

Study these solved cases before continuing.
INSERT INTO assay_data (smiles_record, target_or_system, readout_kind, result) VALUES
  ('Cc1c(C(=O)Nc2nc3c(C)cccc3s2)[nH]c2c1C(=O)CCC2', 'Plasmodium berghei', 'IC90', '> 10 µM'),
  ('Cc1ccc(-n2nnnc2-c2cnc3ccccc3c2-c2ccccc2)cc1', 'Plasmodium berghei', 'IC90', '> 9.08 µM'),
  ('O=C(Nc1cccc(NC(=O)c2cc(C3CC3)nc3c2nc2n3CCCCC2)c1)c1ccco1', 'Plasmodium berghei', 'IC90', '> 10 µM');

Now let's try a different one.
Looking up `COc1cc(/C=C2\COC/C(=C\c3ccc(O)c(OC)c3)C2=O)ccc1O` , I see its IC90 listed as > 8.96 µM

====

# Tested on: Plasmodium berghei
# assay text: Luciferase/luciferin-expressing antifolate-resistant parasites were used to infect a culture of HepG2 cells that were pre-incubated with compounds. Infected hepatocytes emit light due to the luciferase reaction. Assay results are presented as the percent inhibition of light emission compared to control. […]
# Type: functional
# run conditions: sporozoite, read-out: LUCIFERASE INFECTION ASSAY - IC90
readout kind: IC90

INSERT INTO measurements (smiles_record, readout_kind, result) VALUES
  ('COCOc1ccc(-c2cc(-c3ccc(N)nc3)cnc2N)cc1', 'IC90', '3.91 µM');

Go through the list and state IC90 for each entry.
1. CCN(CC)S(=O)(=O)c1ccc(C)c(NC(=O)CN(Cc2c(F)cccc2Cl)C2CC2)c1
2. Oc1cccc(-c2cnc3cnc(-c4cc5ccccc5s4)cn23)c1
3. O=S(=O)(Nc1cc(C(F)(F)F)cc(C(F)(F)F)c1)c1cc(Cl)ccc1Cl
4. CCOC(=O)c1[nH]c(C)c(C(=O)CN(C)S(=O)(=O)c2c(C)noc2C)c1C
5. CC(=O)Nc1ccc(S(=O)(=O)N2CCCc3cc(C)ccc32)cc1
6. CCN(c1ccc(NC(=O)CCc2ccccc2Cl)cc1)C(C)C

Marked response:
1: > 10 µM; 2: 8.34 µM; 3: > 7.53 µM; 4: 3.73 µM; 5: > 10 µM; 6: > 10 µM

====

Provide the reported IC90 of each item.
# Tested on: Plasmodium berghei
# assay text: Luciferase/luciferin-expressing antifolate-resistant parasites were used to infect a culture of HepG2 cells that were pre-incubated with compounds. Infected hepatocytes emit light due to the luciferase reaction. Assay results are presented as the percent inhibition of light emission compared to control. […]
# Assay type: functional
# run conditions: sporozoite, read-out: LUCIFERASE INFECTION ASSAY - IC90

Solved entries:
INSERT INTO results (molecule, readout_kind, result) VALUES
  ('Cc1ccc(Cl)cc1NC(=O)C[n+]1ccc(Cc2ccc([N+](=O)[O-])cc2)cc1', 'IC90', '> 10 µM'),
  ('Fc1ccc(CNc2ccc3ncc(Br)n3n2)cc1', 'IC90', '> 10.3 µM'),
  ('O=C1C(=C2NC=C(c3ccc(Cl)cc3)O2)Sc2ncccc21', 'IC90', '1.69 µM'),
  ('CN(Cc1cn(-c2ccccc2)nc1-c1ccccc1)C(=O)NCCCc1nc2ccccc2[nH]1', 'IC90', '> 10 µM'),
  ('O=C(NCC1CC1)c1cccc(C2(CNCCCN3CCOCC3)CC2)c1', 'IC90', '> 10 µM');

Quick request: IC90 for each listed item, please.
1. CN(C)C(C(=O)c1ccccc1)C(c1ccc(F)cc1)c1ccc(F)cc1 (stereo not drawn)
2. S=c1n(CN2CCN(c3ccccc3Cl)CC2)nc(-c2cccs2)n1Cc1ccccc1
3. Cc1cccc(COC(=O)C2CCN(C3=NS(=O)(=O)c4ccccc43)CC2)c1
4. COc1cccc(CC(=O)N2C[C@H](OC)C[C@H]2C(=O)NCC2CCCCC2)c1
5. CC1CN(Cc2csc(Nc3ccccc3)n2)CC(C)O1 (stereo not drawn)
6. N#Cc1ccc(C(=O)C(C#N)c2nc(-c3ccc(F)cc3)cs2)cc1 (stereo not drawn)
7. CC1CCc2c(C(=O)Nc3cccc(Br)c3)csc2C1 (stereo not drawn)
8. CC(C)c1ccc(N2C(=O)/C(=C\c3ccccc3OCc3ccccn3)NC2=S)cc1

Marked response:
["> 10 µM", "0.362 µM", "> 10 µM", "> 8.49 µM", "9.23 µM", "3.83 µM", "> 9.42 µM", "3.92 µM"]

====

# Tested on: Plasmodium berghei
# assay text: Luciferase/luciferin-expressing antifolate-resistant parasites were used to infect a culture of HepG2 cells that were pre-incubated with compounds. Infected hepatocytes emit light due to the luciferase reaction. Assay results are presented as the percent inhibition of light emission compared to control. […]
# Assay type: functional
# run conditions: sporozoite, read-out: LUCIFERASE INFECTION ASSAY - IC90
Please go through the items and note down their IC90.

INSERT INTO results (smiles_record, result) VALUES
  ('Cc1nn(C)c(Cl)c1/C=N/Nc1ccc([N+](=O)[O-])cc1S(=O)(=O)Nc1ccc(Cl)cc1', '> 10 µM'),
  ('NC(=O)C1CCN(C(=O)CCn2c(=O)oc3ccccc32)CC1', '> 10 µM'),
  ('O=C(c1ccccc1)C1CCN(C(=O)/C=C/c2cccc(Cl)c2Cl)CC1', '> 10 µM'),
  ('O=C(N/N=C/c1ccc(F)cc1)c1ccc[n+]([O-])c1', '> 10 µM'),
  ('CC(C)(C)c1ccc(-c2nnc(SCc3c(Cl)cccc3Cl)n2Cc2ccco2)cc1', '> 6.99 µM'),
  ('CC(C)(C)c1cc(/C=C2\C=c3ccccc3=C2O)cc(C(C)(C)C)c1O', '> 9.47 µM'),
  ('COc1ccc(/C=C2\Oc3c(CN(C)C)c(O)cc(C)c3C2=O)cc1', '> 9.72 µM'),
  ('CC(=O)c1c(C)[nH]c(C(=O)OCC(=O)Nc2ccccc2C(F)(F)F)c1C', '> 10 µM');

Need IC90 for each of these compounds.
1. CNc1nc2cnc(-c3ccc(O)c(OC)c3)cc2n1Cc1ccccc1
2. Clc1cccc(-c2cnc3sc(NCCc4ccncc4)nn23)c1
3. COc1c(Cl)cc(Br)c(OC)c1C(=O)NC(=O)Nc1cc(C(F)(F)F)cc(C(F)(F)F)c1
4. O=C(Nc1ccc(OC(F)(F)F)cc1)Nc1ccc2nc(-c3ccco3)nn2c1

Marked response:
1: 3.99 µM; 2: > 9.27 µM; 3: 2.27 µM; 4: 7.51 µM
